- PROTOCOL_SUMMARY: Compound toxicity, ATPLite total ATP levels
- Assay type: cell-based
- CONDITION_SUMMARY: human, HepAD38 cells; three days after compound addition; concentration reducing total ATP levels by 50% relative to no drug controls; numeric bounds
Parameter: CC50 at 3 days. Scope: all listed entries.

COMPOUND	CC50 at 3 days
Cn1ccnc1[C@]1(O)CC2CC[C@@H](C1)[C@H]2S(=O)(=O)c1cc(C(=O)Nc2cc(F)c(F)c(F)c2)ccc1Cl	> 6.25 µM
[N-]=[N+]=NC[C@@H]1CC2CC[C@@H](C1)[C@H]2S(=O)(=O)c1cc(C(=O)Nc2cc(F)c(F)c(F)c2)ccc1Cl	> 6.25 µM
[N-]=[N+]=NC[C@@]1(O)CC2CC[C@@H](C1)[C@H]2S(=O)(=O)c1cc(C(=O)Nc2cc(F)c(F)c(F)c2)ccc1Cl	> 12.5 µM
NC(=O)OC[C@@H]1CC2CC[C@@H](C1)[C@H]2S(=O)(=O)c1cc(C(=O)Nc2cc(F)c(F)c(F)c2)ccc1Cl	> 12.5 µM
O=C(Nc1cc(F)c(F)c(F)c1)c1ccc(Cl)c(S(=O)(=O)[C@H]2CC3CCC(C2)[C@]3(O)CNS(=O)(=O)c2ccccn2)c1	> 6.25 µM
COC(=O)N[C@@H](C(=O)NC1CC2CC[C@@H](C1)[C@H]2S(=O)(=O)c1cc(C(=O)Nc2cc(F)c(F)c(F)c2)ccc1Cl)C(C)C (stereo partly shown)	> 6.25 µM
[N-]=[N+]=NC[C@]1(O)C2CCC1C[C@H](S(=O)(=O)c1cc(C(=O)Nc3cc(F)c(F)c(F)c3)ccc1Cl)C2	> 12.5 µM
O=C(Nc1cc(F)c(F)c(F)c1)c1ccc(Cl)c(S(=O)(=O)[C@H]2CC3CCC(C2)[C@]3(O)CNS(=O)(=O)c2cccnc2)c1	> 12.5 µM
O=C1NC[C@@]2(CC3CC[C@@H](C2)[C@H]3S(=O)(=O)c2cc(C(=O)Nc3cc(F)c(F)c(F)c3)ccc2Cl)O1	> 12.5 µM
CC(C)(C)OC(=O)NC1CC2CC[C@@H](C1)[C@H]2S(=O)(=O)c1cc(C(=O)Nc2cc(F)c(F)c(F)c2)ccc1Cl (stereo partly shown)	> 6.25 µM
O=C(Nc1cc(F)c(F)c(F)c1)c1ccc(Cl)c(S(=O)(=O)[C@H]2CC3CCC(C2)[C@]3(O)Cn2cccn2)c1	> 12.5 µM
CS(=O)(=O)OC[C@@H]1CC2CC[C@@H](C1)[C@H]2S(=O)(=O)c1cc(C(=O)Nc2cc(F)c(F)c(F)c2)ccc1Cl	> 6.25 µM
COC(=O)N1C[C@]2(CC3CC[C@@H](C2)[C@H]3S(=O)(=O)c2cc(C(=O)Nc3cc(F)c(F)c(F)c3)ccc2Cl)OC1=O	> 12.5 µM

Source: patent US10538532B2
